- PROTOCOL TEXT: Apparent permeability of compound
- Format: ADME
- CONDITIONS USED: not told
RECORDED METRIC: Papp (×10⁻⁶ cm/s)
Record the value in ×10⁻⁶ cm/s, omitting the unit from your answer.

Quick check: Papp of CC(C)C[C@H]1NC(=O)[C@H]([C@@H](C)OCc2ccccc2)NC(=O)[C@H]2CCCN2C(=O)CN2C(=O)c3ccccc3[C@@]2(O)CN(Cc2ccccc2)C(=O)[C@H](Cc2ccccc2)NC(=O)[C@H]2CCCN2C(=O)[C@H](Cc2c[nH]c3ccccc23)NC1=O ?
0.416

---

- PROTOCOL TEXT: in vitro
- CONDITIONS USED: human, Caco-2
- Description: Apparent permeability of compound in human Caco-2 cells at 10 uM measured upto 120 mins by LC-MS/MS analysis
RECORDED METRIC: Papp at 2 h, 10 µM

# lookup: Papp at 2 h, 10 µM of CC(C)C[C@H]1NC(=O)[C@H]([C@@H](C)OCc2ccccc2)NC(=O)[C@H]2CCCN2C(=O)CN2C(=O)c3ccccc3[C@@]2(O)CN(Cc2ccccc2)C(=O)[C@H](Cc2ccccc2)NC(=O)[C@H]2CCCN2C(=O)[C@H](Cc2c[nH]c3ccccc23)NC1=O
> 20 ×10⁻⁶ cm/s

---

- Tested on: BEL-7404 tumor cell line
- PROTOCOL TEXT: Antiproliferative activity against human BEL-7404 tumor cell line incubated for 48 hrs by MTT assay
- Format: functional, cell-based
- CONDITIONS USED: BEL-7404, 48 h
Starred links: 1 amine or outer side, 2 acyl side, 3 side chain; linkers in the order of their positions; H or OH if unused. Non-standard residues stand in square brackets, D forms with d. Residues, ends and D or L forms follow the SMILES beside them. *: point of attachment. X1 = O=C1c2ccccc2[C@@](O)(CN(Cc2ccccc2)[*:1])N1CC(=O)[*:2]; X2 = O=C1c2ccccc2[C@](O)(CN(Cc2ccccc2)[*:1])N1CC(=O)[*:2]; Bn = c1ccc(C*)cc1
Consider the following compounds and their measured IC50 readings.

- COMPOUND: "CC(C)C[C@H]1NC(=O)[C@H]([C@@H](C)OCc2ccccc2)NC(=O)[C@H]2CCCN2C(=O)CN2C(=O)c3ccccc3[C@@]2(O)CN(Cc2ccccc2)C(=O)[C@H](Cc2ccccc2)NC(=O)[C@H]2CCCN2C(=O)[C@H](Cc2c[nH]c3ccccc23)NC1=O"
  SYSTEM TESTED: "BEL-7404 tumor cell line"
  RECORDED METRIC: "IC50"
  OBSERVED RESULT: "17.1 µM"
- COMPOUND: "CC(C)C[C@@H]1NC(=O)[C@H]([C@@H](C)OCc2ccccc2)NC(=O)[C@@H]2CCCN2C(=O)[C@H](Cc2ccccc2)NC(=O)[C@@H]2CCCN2C(=O)CN2C(=O)c3ccccc3[C@]2(O)CN(Cc2ccccc2)C(=O)[C@H](Cc2c[nH]c3ccccc23)NC1=O (cyclo(FPT(Bn)LW[X2]P))"
  SYSTEM TESTED: "BEL-7404 tumor cell line"
  RECORDED METRIC: "IC50"
  OBSERVED RESULT: "36.1 µM"
- COMPOUND: "CC(C)C[C@@H]1NC(=O)[C@H]([C@@H](C)OCc2ccccc2)NC(=O)CN2C(=O)c3ccccc3[C@]2(O)CN(Cc2ccccc2)C(=O)[C@@H]2CCCN2C(=O)[C@H](Cc2ccccc2)NC(=O)[C@@H]2CCCN2C(=O)[C@H](Cc2c[nH]c3ccccc23)NC1=O (cyclo(FP[X2]T(Bn)LWP))"
  SYSTEM TESTED: "BEL-7404 tumor cell line"
  RECORDED METRIC: "IC50"
  OBSERVED RESULT: "38.9 µM"
- COMPOUND: "CC(C)C[C@H]1NC(=O)[C@@H]([C@H](C)OCc2ccccc2)NC(=O)[C@H]2CCCN2C(=O)CN2C(=O)c3ccccc3[C@@]2(O)CN(Cc2ccccc2)C(=O)[C@@H](Cc2ccccc2)NC(=O)[C@H]2CCCN2C(=O)[C@@H](Cc2c[nH]c3ccccc23)NC1=O"
  SYSTEM TESTED: "BEL-7404 tumor cell line"
  RECORDED METRIC: "IC50"
  OBSERVED RESULT: "25.7 µM"
- COMPOUND: "CC(C)C[C@@H]1NC(=O)[C@H]([C@@H](C)OCc2ccccc2)NC(=O)[C@@H]2CCCN2C(=O)[C@H](Cc2ccccc2)NC(=O)CN2C(=O)c3ccccc3[C@@]2(O)CN(Cc2ccccc2)C(=O)[C@@H]2CCCN2C(=O)[C@H](Cc2c[nH]c3ccccc23)NC1=O (cyclo(FPT(Bn)LWP[X1]))"
  SYSTEM TESTED: "BEL-7404 tumor cell line"
  RECORDED METRIC: "IC50"
  OBSERVED RESULT: "30.2 µM"

In the following, a different compound is considered.
What measured IC50 goes with CC(C)C[C@@H]1NC(=O)[C@H]([C@@H](C)OCc2ccccc2)NC(=O)[C@@H]2CCCN2C(=O)[C@H](Cc2ccccc2)NC(=O)[C@@H]2CCCN2C(=O)[C@H](Cc2c[nH]c3ccccc23)NC(=O)CN2C(=O)c3ccccc3[C@@]2(O)CN(Cc2ccccc2)C1=O (cyclo(FPT(Bn)L[X1]WP)) ?
28.7 µM
